Sourced from ChEMBL document CHEMBL6127050

biological target: Histone deacetylase; assay: Inhibition of HDAC in human HeLa nuclear extract using Boc-Lys(Ac)-AMC as substrate incubated for 0.5 hrs by microplate reader analysis; format: cell-based
Simple rule here: IC50 less than 100 nM is Fulfilled, otherwise Not fulfilled.

{"columns": ["compound_smiles", "assigned_category"],
 "data": [
  ["CCc1nc(C(N)=O)c(Nc2ccc(N3CCN(CCCCCCC(=O)NO)CC3)c(OC)c2)nc1NC1CCOCC1", "Not fulfilled"],
  ["CCc1nc(C(N)=O)c(Nc2ccc(N3CCN(C(=O)CCCCCCC(=O)NO)CC3)c(OC)c2)nc1NC1CCOCC1", "Not fulfilled"]
]}

*Q* For this molecule, is IC50 lower than 100 nM? "CCc1nc(C(N)=O)c(Nc2ccc(N3CCN(C(=O)CCCCCC(=O)NO)CC3)c(OC)c2)nc1NC1CCOCC1"
*A* Not fulfilled

*Q* For this molecule, is IC50 lower than 100 nM? "CCc1nc(C(N)=O)c(Nc2ccc(N3CCC(N4CCN(Cc5ccc(C(=O)NCc6ccc(/C=C/C(=O)NO)cc6)cc5)CC4)CC3)c(OC)c2)nc1NC1CCOCC1"
*A* Fulfilled

*Q* For this molecule, is IC50 lower than 100 nM? "CCc1nc(C(N)=O)c(Nc2ccc(N3CCN(Cc4ccc(/C=C/C(=O)NO)cc4)CC3)c(OC)c2)nc1NC1CCOCC1"
*A* Fulfilled

---

Biological target: Receptor-type tyrosine-protein kinase FLT3 (Homo sapiens, UniProt P36888)
Sequence (P36888 whole entry): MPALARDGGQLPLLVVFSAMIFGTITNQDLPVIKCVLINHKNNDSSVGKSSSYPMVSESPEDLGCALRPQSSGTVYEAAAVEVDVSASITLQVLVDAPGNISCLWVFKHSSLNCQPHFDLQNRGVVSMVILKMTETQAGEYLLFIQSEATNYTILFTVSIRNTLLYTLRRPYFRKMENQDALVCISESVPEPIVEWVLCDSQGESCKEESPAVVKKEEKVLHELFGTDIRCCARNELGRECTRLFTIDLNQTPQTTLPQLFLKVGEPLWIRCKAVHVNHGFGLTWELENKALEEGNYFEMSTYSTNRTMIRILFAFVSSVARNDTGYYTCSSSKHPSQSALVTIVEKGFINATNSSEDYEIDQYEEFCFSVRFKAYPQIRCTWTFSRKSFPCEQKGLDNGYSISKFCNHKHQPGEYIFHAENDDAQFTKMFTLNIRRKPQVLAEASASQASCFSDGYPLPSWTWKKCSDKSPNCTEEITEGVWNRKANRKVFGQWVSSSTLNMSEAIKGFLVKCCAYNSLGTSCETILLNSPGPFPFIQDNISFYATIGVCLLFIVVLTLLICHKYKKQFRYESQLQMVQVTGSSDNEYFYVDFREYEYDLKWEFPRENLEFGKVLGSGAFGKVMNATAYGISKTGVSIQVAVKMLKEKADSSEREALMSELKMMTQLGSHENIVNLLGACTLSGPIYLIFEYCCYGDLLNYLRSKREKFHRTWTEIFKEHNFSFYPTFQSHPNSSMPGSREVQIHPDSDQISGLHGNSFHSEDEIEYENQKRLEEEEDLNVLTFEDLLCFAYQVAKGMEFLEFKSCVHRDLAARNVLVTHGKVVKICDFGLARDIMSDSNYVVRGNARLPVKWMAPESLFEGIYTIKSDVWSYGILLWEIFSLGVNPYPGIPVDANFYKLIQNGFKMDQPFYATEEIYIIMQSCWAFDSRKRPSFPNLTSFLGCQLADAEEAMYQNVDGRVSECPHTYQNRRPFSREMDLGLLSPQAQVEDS
Each record here notes measured pIC50.
// pIC50: -log10(molar conc.)

{"columns": ["compound_smiles", "measured_value"],
 "data": [
  ["CCc1nc(C(N)=O)c(Nc2ccc(N3CCN(CCCCCCCC(=O)NO)CC3)c(OC)c2)nc1NC1CCOCC1", 9.22]
]}

Now for the compound whose pIC50 we want.
According to the records, this compound "CCc1nc(C(N)=O)c(Nc2ccc(N3CCN(CCCCCCC(=O)NO)CC3)c(OC)c2)nc1NC1CCOCC1" displays pIC50 of 9.22

---

Each record here notes measured inhibition.
target: Histone deacetylase (Homo sapiens) (UniProt Q13547+O15379+Q9UBN7+Q92769+Q9UQL6+Q8WUI4+Q9BY41+Q96DB2+P56524+Q9UKV0+Q969S8); test: Inhibition of HDAC in human HeLa nuclear extract using Boc-Lys(Ac)-AMC as substrate at 200 nM incubated for 0.5 hrs by microplate reader analysis relative to control; format: cell-free

According to the records, this compound "CCc1nc(C(N)=O)c(Nc2ccc(N3CCC(N4CCN(CCCCCCCC(=O)NO)CC4)CC3)c(OC)c2)nc1NC1CCOCC1" displays inhibition of 28%

According to the records, this compound "CCc1nc(C(N)=O)c(Nc2ccc(N3CCN(CCCC(=O)NO)CC3)c(OC)c2)nc1NC1CCOCC1" displays inhibition of 3%

According to the records, this compound "CCc1nc(C(N)=O)c(Nc2ccc(N3CCC(N4CCN(C(=O)CCCCCC(=O)NO)CC4)CC3)c(OC)c2)nc1NC1CCOCC1" displays inhibition of 14%

According to the records, this compound "CCc1nc(C(N)=O)c(Nc2ccc(N3CCN(CCCCC(=O)NO)CC3)c(OC)c2)nc1NC1CCOCC1" displays inhibition of 1%

According to the records, this compound "CCc1nc(C(N)=O)c(Nc2ccc(N3CCC(N4CCN(C(=O)CCCC(=O)NO)CC4)CC3)c(OC)c2)nc1NC1CCOCC1" displays inhibition of 27%

According to the records, this compound "CCc1nc(C(N)=O)c(Nc2ccc(N3CCC(N4CCN(c5ncc(C(=O)NO)cn5)CC4)CC3)c(OC)c2)nc1NC1CCOCC1" displays inhibition of 18.7%

According to the records, this compound "CCc1nc(C(N)=O)c(Nc2ccc(N3CCC(N4CCN(C(=O)CCCCC(=O)NO)CC4)CC3)c(OC)c2)nc1NC1CCOCC1" displays inhibition of 10%

---

test: Cytotoxicity against HEK293T cells incubated for 48 hrs; assay type: toxicity, cell-based, HEK-293T; details: human
Each record here notes measured IC50 at 48 h.

Solved entries:
{"columns": ["compound_smiles", "IC50 at 48 h"],
 "data": [
  ["CCc1nc(C(N)=O)c(Nc2ccc(N3CCN(CCCCCCCC(=O)NO)CC3)c(OC)c2)nc1NC1CCOCC1", "3.05 µM"],
  ["CCc1nc(C(N)=O)c(Nc2ccc(N3CCC(N4CCN(C)CC4)CC3)c(OC)c2)nc1NC1CCOCC1", "0.97 µM"]
]}

Now for the compound whose IC50 at 48 h we want.
According to the records, this compound "O=C(CCCCCCC(=O)Nc1ccccc1)NO" displays IC50 at 48 h of 2.21 µM

---

target: Histone deacetylase (Homo sapiens) (UniProt Q13547+O15379+Q9UBN7+Q92769+Q9UQL6+Q8WUI4+Q9BY41+Q96DB2+P56524+Q9UKV0+Q969S8); assay: Inhibition of HDAC in human HeLa nuclear extract using Boc-Lys(Ac)-AMC as substrate at 200 nM incubated for 0.5 hrs by microplate reader analysis relative to control; assay type: cell-free
Each record here notes measured inhibition.
Number first, unit second: that is the form wanted.

Solved entries:
{"columns": ["compound_smiles", "measured_value"],
 "data": [
  ["CCc1nc(C(N)=O)c(Nc2ccc(N3CCC(N4CCN(Cc5ccc(C(=O)NO)cc5)CC4)CC3)c(OC)c2)nc1NC1CCOCC1", "18%"],
  ["CCc1nc(C(N)=O)c(Nc2ccc(N3CCC(N4CCN(C(=O)CCCCCCC(=O)NO)CC4)CC3)c(OC)c2)nc1NC1CCOCC1", "27%"],
  ["CCc1nc(C(N)=O)c(Nc2ccc(N3CCC(N4CCN(Cc5ccc(/C=C/C(=O)NO)cc5)CC4)CC3)c(OC)c2)nc1NC1CCOCC1", "28%"],
  ["CCc1nc(C(N)=O)c(Nc2ccc(N3CCN(CCCCCC(=O)NO)CC3)c(OC)c2)nc1NC1CCOCC1", "25%"],
  ["CCc1nc(C(N)=O)c(Nc2ccc(N3CCC(N4CCN(CCCCCC(=O)NO)CC4)CC3)c(OC)c2)nc1NC1CCOCC1", "36%"]
]}

Now for the compound whose inhibition we want.
According to the records, this compound "CCc1nc(C(N)=O)c(Nc2ccc(N3CCN(CCC(=O)NO)CC3)c(OC)c2)nc1NC1CCOCC1" displays inhibition of 10%
